Target: human sigma 1 receptor (Homo sapiens (Human))
Assay: Human Sigma 1 Receptor Radioligand Assay
Assay type: binding
Conditions: transfected HEK-293 membranes, 5 nM [3H](+)-pentazocine as radioligand, 37° C., 120 minutes; maleate
Structures can show the parent of a compound that is named as a salt.
testReadout: Ki (nM)
State just the number; it will be interpreted in nM.

-- ask Fill blank: measured Ki of the compound CC(C(=O)N1CCn2c(cc3ccccc32)C1)N1CCCCCC1 (stereo not shown) [Example 8, maleate] is ____.
-- reply 29.6

----------
Biological target: human sigma 1 receptor (Homo sapiens (Human), UniProt Q99720)
Sequence (Q99720 whole entry): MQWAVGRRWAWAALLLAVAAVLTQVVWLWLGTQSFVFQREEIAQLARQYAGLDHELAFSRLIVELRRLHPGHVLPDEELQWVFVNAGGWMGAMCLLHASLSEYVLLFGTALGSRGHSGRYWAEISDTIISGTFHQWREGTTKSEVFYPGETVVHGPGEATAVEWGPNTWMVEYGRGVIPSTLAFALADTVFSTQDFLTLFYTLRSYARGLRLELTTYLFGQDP
Assay: Human Sigma 1 Receptor Radioligand Assay
Type: binding
Settings: transfected HEK-293 membranes, 5 nM [3H](+)-pentazocine as radioligand, 37° C., 120 minutes
Where a name gives a salt, the structure may show the parent alone.
testReadout: pKi
Please keep in mind that pKi is minus log10 of the molar concentration; only the number is needed.

-- ask Item C[C@@H](C(=O)N1CCn2c(cc3ccccc32)C1)N1CCN(C)CC1 [Example 19] has what recorded pKi?
-- reply 7.25

-- ask Which pKi is reported for this compound? C[C@H](CN1CCN(C)CC1)C(=O)N1CCn2c(cc3ccccc32)C1 [Example 47]
-- reply 7.31

-- ask Please report the recorded pKi for CC(C(=O)N1CCn2c(cc3cc(F)ccc32)C1)N1CCN(C)CC1 (centres unmarked) [Example 26] .
-- reply 6.91

-- ask Reported pKi for CC(C(=O)N1CCn2c(cc3ccccc32)C1)N1CCN(C)CC1 (centres unmarked) [Example 1] : what is it?
-- reply 6.98

-- ask Please report the recorded pKi for C[C@H](CC(=O)N1CCn2c(cc3ccccc32)C1)N1CCN(C)CC1 [Example 50] .
-- reply 6.60

-- ask For the compound shown here, CN(C)CCCC(=O)N1CCn2c(cc3ccccc32)C1 [Example 11] , give the reported pKi.
-- reply 7.22

-- ask Quick one: pKi for O=C(CN1CCC(Cc2ccccc2)CC1)N1CCn2c(cc3ccccc32)C1 [Example 6, hydrochloride] ?
-- reply 7.84

-- ask Please look up its pKi: CCC(C(=O)N1CCn2c(cc3ccccc32)C1)N(C)CCN(C)C (centres unmarked) [Example 39]
-- reply 6.37

-- ask Can you share its pKi? I mean this compound: C[C@@H](C(=O)N1CCN2c3ccccc3C[C@H]2C1)N1CCN(C)CC1 [Example 34]
-- reply 7.25

-- ask Endpoint output: pKi of O=C(CCCN1CCCCC1)N1CCn2c(cc3cc(F)ccc32)C1 [Example 16] . Value?
-- reply 7.65

-- ask For the compound shown here, CC(CN1CCN(C)CC1)C(=O)N1CCn2c(cc3ccccc32)C1 (centres unmarked) [Example 41] , give the reported pKi.
-- reply 7.14

-- ask pKi lookup needed for O=C(CCCN1CCCCCC1)N1CCn2c(cc3cc(F)ccc32)C1 [Example 21] , thanks.
-- reply 7.66

-- ask Which measured pKi value corresponds to CC(C(=O)N1CCn2c(cc3cc(F)ccc32)C1)N1CCN(C2CCCCC2)CC1 (centres unmarked) [Example 27] ?
-- reply 7.59

-- ask Suppose we examine the compound O=C(CN1CCCCC1)N1CCn2c(cc3ccccc32)C1 [Example 5, hydrochloride] ; what pKi value has been reported?
-- reply 7.40

-- ask Field request: pKi | item: CC(C(=O)N1CCn2c(cc3ccccc32)C1)N1CCCCCC1 (centres unmarked) [Example 7]
-- reply 7.61

-- ask If you can, please state the reported pKi value of CCN1CCN(C(C)C(=O)N2CCn3c(cc4cc(F)ccc43)C2)CC1 (centres unmarked) [Example 29] .
-- reply 6.90

-- ask Recorded pKi of C[C@H](C(=O)N1CCN2c3ccccc3C[C@H]2C1)N1CCN(C)CC1 [Example 32] , please.
-- reply 6.63

-- ask Which pKi value is on record for CC[C@@H](C(=O)N1CCn2c(cc3ccccc32)C1)N1CCN(C)CC1 [Example 46] ?
-- reply 7.12

-- ask // lookup pKi for O=C(CN1CCCCCC1)N1CCn2c(cc3ccccc32)C1 [Example 4, hydrochloride]
-- reply 7.99

-- ask Data request, read-out pKi, for Cc1c2n(c3ccccc13)CCN(C(=O)CN1CCCCC1)C2 [Example 14]
-- reply 7.62

-- ask Using the record for CN1CCN(CCCC(=O)N2CCn3c(cc4ccccc43)C2)CC1 [Example 22] , report its pKi.
-- reply 6.53

-- ask Look up pKi for this compound: CN1CCN(C(C)(C)C(=O)N2CCn3c(cc4ccccc43)C2)CC1 [Example 2]
-- reply 7.02

-- ask I have this compound here, C[C@@H](C(=O)N1CCN2c3ccccc3C[C@@H]2C1)N1CCN(C2CCCCC2)CC1 [Example 52] , and I need its recorded pKi.
-- reply 6.85

-- ask Bench note: what pKi did CC(C(=O)N1CCn2c(cc3ccccc32)C1)N1CCCCC1 (centres unmarked) [Example 9] show?
-- reply 6.89

-- ask What value of pKi has been reported for the following compound? O=C(CCN1CCCCCC1)N1CCn2c(cc3ccccc32)C1 [Example 17]
-- reply 7.96

-- ask // lookup pKi for C[C@@H](CN1CCN(C)CC1)C(=O)N1CCn2c(cc3ccccc32)C1 [Example 48]
-- reply 6.85

-- ask # lookup: pKi of C[C@H](C(=O)N1CCN2c3ccccc3C[C@@H]2C1)N1CCN(C2CCCCC2)CC1 [Example 54]
-- reply 7.15

-- ask Fill in: pKi of CC(C(=O)N1CCn2c(cc3ccccc32)C1)N1CCC(N2CCCCC2)CC1 (centres unmarked) [Example 37] is ___
-- reply 6.30

-- ask Quick check: pKi of C[C@@H](C(=O)N1CCN2c3ccccc3C[C@H]2C1)N1CCN(C2CCCCC2)CC1 [Example 53] ?
-- reply 7.02

-- ask Would you kindly share the measured pKi for CCN(CC)CCNC(C)C(=O)N1CCn2c(cc3ccccc32)C1 (centres unmarked) [Example 30] ?
-- reply 6.62

-- ask Any idea what pKi was measured for CN(C)CCCC(=O)N1CCN2c3ccccc3CC2C1 (centres unmarked) [Example 43] ?
-- reply 6.82

-- ask Which pKi value is on record for CC(C(=O)N1CCn2c(cc3ccccc32)C1)N1CCN(C2CCCCC2)CC1 (centres unmarked) [Example 24] ?
-- reply 7.42

-- ask Find the recorded pKi belonging to Cc1c2n(c3ccccc13)CCN(C(=O)CN1CCC(Cc3ccccc3)CC1)C2 [Example 15] and report it.
-- reply 7.58

-- ask Which pKi value belongs to C[C@@H](C(=O)N1CCN2c3ccccc3C[C@@H]2C1)N1CCN(C)CC1 [Example 33] ?
-- reply 7.07

-- ask Query: pKi; subject: CC(CC(=O)N1CCn2c(cc3ccccc32)C1)N1CCN(C)CC1 (centres unmarked) [Example 3]
-- reply 7.17
